molecular target: human PDE2A1 (Homo sapiens (Human)); assay: IMAP FP PDE selectivity panel, human PDE2A1; type: biochemical; settings: Human PDE2, Lab A; read-out: Human PDE2 Ki (nM) - Lab A
Sequence (O00408 other isoform, or with tags, fused parts or gaps): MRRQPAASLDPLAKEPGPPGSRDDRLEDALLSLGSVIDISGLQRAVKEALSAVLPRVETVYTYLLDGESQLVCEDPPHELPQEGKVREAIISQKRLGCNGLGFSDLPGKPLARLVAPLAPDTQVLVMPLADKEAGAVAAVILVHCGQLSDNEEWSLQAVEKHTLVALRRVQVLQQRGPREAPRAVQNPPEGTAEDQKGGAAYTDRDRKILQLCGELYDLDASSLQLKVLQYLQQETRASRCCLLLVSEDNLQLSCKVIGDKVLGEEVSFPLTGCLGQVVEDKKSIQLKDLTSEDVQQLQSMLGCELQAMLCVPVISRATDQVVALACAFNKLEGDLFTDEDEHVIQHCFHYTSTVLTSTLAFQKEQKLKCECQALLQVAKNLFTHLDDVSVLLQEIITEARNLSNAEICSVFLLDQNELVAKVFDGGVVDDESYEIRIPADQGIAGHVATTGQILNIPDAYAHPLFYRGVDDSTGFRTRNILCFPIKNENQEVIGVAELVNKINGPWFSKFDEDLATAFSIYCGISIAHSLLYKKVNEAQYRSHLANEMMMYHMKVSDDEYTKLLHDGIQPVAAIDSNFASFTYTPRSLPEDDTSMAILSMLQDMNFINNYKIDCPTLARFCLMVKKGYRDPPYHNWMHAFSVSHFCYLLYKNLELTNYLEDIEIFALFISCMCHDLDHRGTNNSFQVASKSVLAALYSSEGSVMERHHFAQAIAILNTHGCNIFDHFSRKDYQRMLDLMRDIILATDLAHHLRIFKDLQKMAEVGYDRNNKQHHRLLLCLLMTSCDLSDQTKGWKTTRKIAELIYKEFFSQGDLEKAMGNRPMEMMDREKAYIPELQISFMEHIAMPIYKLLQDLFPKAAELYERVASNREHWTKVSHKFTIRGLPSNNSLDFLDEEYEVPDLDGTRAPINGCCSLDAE
READOUT_NAME: Ki

> print(dat)
                                   compound                    target.under.test  test.result
1  CC(NC(=O)c1cc(=O)[nH]c(-c2ncccn2)n1)c1ccc(C2CC2)cc1 (stereo not shown)  human PDE2A1 (Homo sapiens (Human))      ~5.4 nM
2  CC[C@@H](NC(=O)c1cc(=O)[nH]c(C2CC2)n1)c1ccc(C(F)(F)F)c(F)c1  human PDE2A1 (Homo sapiens (Human))       ~13 nM
3  CC(C)(NC(=O)c1cc(=O)[nH]c(C2CC2)n1)c1ccc(SC(F)(F)F)c(F)c1  human PDE2A1 (Homo sapiens (Human))        65 nM

Next item in the queue.
Answer with reported Ki of C[C@@H](NC(=O)c1cc(=O)[nH]c(-c2ncccn2)n1)c1ccc(OC(F)(F)F)cc1F
~8.9 nM

---

Ki by entry:
biological target: human PDE2A1 (Homo sapiens (Human)); test: IMAP FP PDE selectivity panel, human PDE2A1; format: biochemical; settings: Human PDE2, Lab A; read-out: Human PDE2 Ki (nM) - Lab A

> print(dat)
                              smiles.record                    target.under.test  test.result
1  C[C@@H](NC(=O)c1cc(=O)[nH]c(C2CC2)n1)c1ccc(C2CC2)cc1  human PDE2A1 (Homo sapiens (Human))       ~12 nM
2  Cc1nc(C(=O)NC2(c3ccc(OC(F)(F)F)c(F)c3)CC2)cc(=O)[nH]1  human PDE2A1 (Homo sapiens (Human))      ~9.6 nM
3  CC[C@@H](NC(=O)c1cc(=O)[nH]c(C)n1)c1ccc(S(F)(F)(F)(F)F)cc1  human PDE2A1 (Homo sapiens (Human))      ~6.1 nM

State, in one line, measured Ki of C[C@@H](NC(=O)c1cc(=O)[nH]c(-c2ncccn2)n1)c1cc(F)c(C(F)(F)F)c(F)c1
~9.2 nM

---

target: human PDE2A1 (Homo sapiens (Human)); test: IMAP FP PDE selectivity panel, human PDE2A1; type: biochemical; details: Human PDE2, Lab B; read-out: Human PDE2 Ki (nM) - Lab B
Each entry below carries its recorded Ki.
Report the figure in nM without appending any unit label.

# count of solved cases: 3
> print(dat)
                                   compound  test.result
1  C[C@@H](O)[C@@H](NC(=O)c1cc(=O)[nH]c(-c2ccccc2)n1)c1ccc(C(F)(F)F)cc1 [Example 392]          3.3
2  COc1ccc(Cc2nc(C(=O)N[C@@H](c3ccc(OC(F)(F)F)c(F)c3)C(C)C)cc(=O)[nH]2)cc1 [Example 473]         0.86
3  CC(C)[C@@H](NC(=O)c1cc(=O)[nH]c(-c2ncccn2)n1)c1ccc(S(F)(F)(F)(F)F)cc1 [Example 265]          1.5

Using known records, supply Ki for C[C@@H](NC(=O)c1cc(=O)[nH]c(-c2ncccn2)n1)c1ccc2c(c1)OC(F)(F)O2 [Example 587]
71
